Listing: Percentage inhibition of kinase enzyme activity of selected compounds
# tested system: AKT1 (Homo sapiens, UniProt P31749)
# Construct: purchased Carna Biosciences
# Sequence (P31749 whole entry): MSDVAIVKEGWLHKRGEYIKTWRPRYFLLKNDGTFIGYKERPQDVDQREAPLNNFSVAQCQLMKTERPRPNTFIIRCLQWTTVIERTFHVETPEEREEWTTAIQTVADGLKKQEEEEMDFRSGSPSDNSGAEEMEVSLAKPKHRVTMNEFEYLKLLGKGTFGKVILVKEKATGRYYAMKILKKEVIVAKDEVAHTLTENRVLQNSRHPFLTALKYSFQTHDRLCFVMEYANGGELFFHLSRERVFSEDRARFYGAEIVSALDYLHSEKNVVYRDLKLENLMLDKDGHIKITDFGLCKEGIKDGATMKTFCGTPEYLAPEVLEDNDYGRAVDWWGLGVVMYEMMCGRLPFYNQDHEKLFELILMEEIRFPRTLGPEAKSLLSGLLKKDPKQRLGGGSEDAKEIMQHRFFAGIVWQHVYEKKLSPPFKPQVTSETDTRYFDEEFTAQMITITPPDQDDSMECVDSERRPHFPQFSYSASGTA
# procedure details: Kinase panel profiling at 1 µmol/L (mobility shift assay, Carna)
# Type: biochemical
# reported conditions: 1 µmol/L of BTK inhibitor
readout: Percentage inhibition of kinase enzyme activity (%)

1. CC#CC(=O)N1CCC[C@H]1c1nc(-c2ccc(C(=O)Nc3ccccn3)cc2)c2c(N)nccn12 [acalabrutinib] ... -6.23
2. COc1ccc(F)cc1C(=O)NCc1ccc(-c2nn([C@@H](C)C(F)(F)F)c(N)c2C(N)=O)cc1 [pirtobrutinib] ... -12.80
3. O=C(c1ccc(Oc2ccccc2)cc1Cl)c1c[nH]c2ncnc(N[C@@H]3CC[C@@H](CO)OC3)c12 [nemtabrutinib] ... -8.43
4. C=CC(=O)N1CCC[C@@H](n2nc(-c3ccc(Oc4ccccc4)cc3)c3c(N)ncnc32)C1 [ibrutinib] ... -9.41

====

Listing: Percentage inhibition of kinase enzyme activity of selected molecules
# tested system: SPHK1 (Homo sapiens)
# Construct: purchased Carna Biosciences
# Sequence (Q9NYA1 whole entry): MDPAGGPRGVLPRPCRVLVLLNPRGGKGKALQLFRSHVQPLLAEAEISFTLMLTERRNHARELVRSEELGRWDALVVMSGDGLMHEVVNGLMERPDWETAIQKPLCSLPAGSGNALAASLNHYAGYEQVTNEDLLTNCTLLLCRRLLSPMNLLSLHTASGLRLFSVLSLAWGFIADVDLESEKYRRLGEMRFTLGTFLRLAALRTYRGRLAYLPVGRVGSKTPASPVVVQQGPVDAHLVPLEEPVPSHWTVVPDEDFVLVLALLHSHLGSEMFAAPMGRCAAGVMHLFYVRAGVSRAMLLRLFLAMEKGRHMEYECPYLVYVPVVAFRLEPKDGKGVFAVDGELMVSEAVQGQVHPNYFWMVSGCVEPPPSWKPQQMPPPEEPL
# procedure details: Kinase panel profiling at 1 µmol/L (mobility shift assay, Carna)
# Format: biochemical
# reported conditions: 1 µmol/L of BTK inhibitor
readout: Percentage inhibition of kinase enzyme activity (%)

1) COc1ccc(F)cc1C(=O)NCc1ccc(-c2nn([C@@H](C)C(F)(F)F)c(N)c2C(N)=O)cc1 ... -10.15
2) C=CC(=O)N1CCC[C@@H](n2nc(-c3ccc(Oc4ccccc4)cc3)c3c(N)ncnc32)C1 ... -3.38
3) O=C(c1ccc(Oc2ccccc2)cc1Cl)c1c[nH]c2ncnc(N[C@@H]3CC[C@@H](CO)OC3)c12 ... -5.57
4) CC#CC(=O)N1CCC[C@H]1c1nc(-c2ccc(C(=O)Nc3ccccn3)cc2)c2c(N)nccn12 ... -3.15

====

# tested system: FLT1 (Homo sapiens)
# Construct: purchased Carna Biosciences
# Sequence (P17948 27-1338): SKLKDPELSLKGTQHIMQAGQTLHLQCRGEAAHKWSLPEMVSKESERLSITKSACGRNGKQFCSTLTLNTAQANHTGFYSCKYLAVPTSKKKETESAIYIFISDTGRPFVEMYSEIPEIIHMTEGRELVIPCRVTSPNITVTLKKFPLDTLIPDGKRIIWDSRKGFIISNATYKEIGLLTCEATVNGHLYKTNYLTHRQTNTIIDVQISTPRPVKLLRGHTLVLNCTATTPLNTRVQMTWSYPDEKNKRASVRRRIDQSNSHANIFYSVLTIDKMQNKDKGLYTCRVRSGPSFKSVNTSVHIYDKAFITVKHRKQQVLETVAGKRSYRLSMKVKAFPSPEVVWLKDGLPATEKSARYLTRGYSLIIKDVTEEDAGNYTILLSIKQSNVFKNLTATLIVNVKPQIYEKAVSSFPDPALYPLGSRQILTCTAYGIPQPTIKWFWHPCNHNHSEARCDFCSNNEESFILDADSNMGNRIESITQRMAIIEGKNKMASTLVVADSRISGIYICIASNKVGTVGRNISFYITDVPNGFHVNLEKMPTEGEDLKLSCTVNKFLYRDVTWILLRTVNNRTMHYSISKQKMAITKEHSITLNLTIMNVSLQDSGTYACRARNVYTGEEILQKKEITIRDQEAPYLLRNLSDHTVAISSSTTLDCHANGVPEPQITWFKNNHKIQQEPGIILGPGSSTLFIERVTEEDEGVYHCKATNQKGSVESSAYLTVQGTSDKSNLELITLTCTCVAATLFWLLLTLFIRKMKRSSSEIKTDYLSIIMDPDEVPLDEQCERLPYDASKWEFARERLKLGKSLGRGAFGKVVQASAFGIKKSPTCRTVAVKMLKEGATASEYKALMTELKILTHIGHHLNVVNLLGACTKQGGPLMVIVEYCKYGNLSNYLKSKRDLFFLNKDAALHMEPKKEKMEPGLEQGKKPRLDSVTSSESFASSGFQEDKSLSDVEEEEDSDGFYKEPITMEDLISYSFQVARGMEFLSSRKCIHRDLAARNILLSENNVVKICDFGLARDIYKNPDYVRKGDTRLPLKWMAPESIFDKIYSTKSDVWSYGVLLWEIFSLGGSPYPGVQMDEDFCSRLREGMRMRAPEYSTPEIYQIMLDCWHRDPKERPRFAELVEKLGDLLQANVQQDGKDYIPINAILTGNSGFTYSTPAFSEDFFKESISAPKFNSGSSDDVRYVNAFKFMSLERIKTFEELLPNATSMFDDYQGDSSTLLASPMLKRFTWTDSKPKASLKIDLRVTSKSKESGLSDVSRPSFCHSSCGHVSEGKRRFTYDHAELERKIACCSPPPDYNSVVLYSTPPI
# procedure details: Kinase panel profiling at 1 µmol/L (mobility shift assay, Carna)
# Format: biochemical
# reported conditions: 1 µmol/L of BTK inhibitor
readout: Percentage inhibition of kinase enzyme activity (%)

1) CC#CC(=O)N1CCC[C@H]1c1nc(-c2ccc(C(=O)Nc3ccccn3)cc2)c2c(N)nccn12 ... -1.14
2) O=C(c1ccc(Oc2ccccc2)cc1Cl)c1c[nH]c2ncnc(N[C@@H]3CC[C@@H](CO)OC3)c12 ... 87.14
3) C=CC(=O)N1CCC([C@@H]2CCNc3c(C(N)=O)c(-c4ccc(Oc5ccccc5)cc4)nn32)CC1 ... 22.02
4) C=CC(=O)N1CCC[C@@H](n2nc(-c3ccc(Oc4ccccc4)cc3)c3c(N)ncnc32)C1 ... 72.57
5) COc1ccc(F)cc1C(=O)NCc1ccc(-c2nn([C@@H](C)C(F)(F)F)c(N)c2C(N)=O)cc1 ... 4.85

====

# tested system: FER (Homo sapiens, UniProt P16591)
# Construct: purchased Carna Biosciences
# Sequence (P16591 whole entry): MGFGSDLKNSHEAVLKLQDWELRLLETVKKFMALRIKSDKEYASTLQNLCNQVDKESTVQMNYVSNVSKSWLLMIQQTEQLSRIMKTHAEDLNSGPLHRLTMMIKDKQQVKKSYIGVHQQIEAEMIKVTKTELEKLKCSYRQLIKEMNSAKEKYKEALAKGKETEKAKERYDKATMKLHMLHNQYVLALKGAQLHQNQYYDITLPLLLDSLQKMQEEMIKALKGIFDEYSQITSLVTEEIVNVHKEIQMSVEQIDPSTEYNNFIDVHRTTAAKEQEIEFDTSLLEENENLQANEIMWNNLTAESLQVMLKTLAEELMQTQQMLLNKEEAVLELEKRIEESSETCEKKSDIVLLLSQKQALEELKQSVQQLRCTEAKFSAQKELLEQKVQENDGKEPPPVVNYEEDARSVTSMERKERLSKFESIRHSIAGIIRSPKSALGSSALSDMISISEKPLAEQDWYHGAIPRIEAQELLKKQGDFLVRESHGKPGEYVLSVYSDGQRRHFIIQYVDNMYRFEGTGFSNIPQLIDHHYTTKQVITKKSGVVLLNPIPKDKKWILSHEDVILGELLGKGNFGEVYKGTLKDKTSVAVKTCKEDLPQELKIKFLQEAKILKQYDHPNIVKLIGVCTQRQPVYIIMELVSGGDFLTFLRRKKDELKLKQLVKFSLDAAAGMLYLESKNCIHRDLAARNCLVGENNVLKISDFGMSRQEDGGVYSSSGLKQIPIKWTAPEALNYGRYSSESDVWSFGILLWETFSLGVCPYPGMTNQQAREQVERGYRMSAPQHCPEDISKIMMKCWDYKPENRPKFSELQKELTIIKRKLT
# procedure details: Kinase panel profiling at 1 µmol/L (mobility shift assay, Carna)
# Type: biochemical
# reported conditions: 1 µmol/L of BTK inhibitor
Listing: Percentage inhibition of kinase enzyme activity of selected compounds
readout: Percentage inhibition of kinase enzyme activity (%)

1) CC#CC(=O)N1CCC[C@H]1c1nc(-c2ccc(C(=O)Nc3ccccn3)cc2)c2c(N)nccn12 [acalabrutinib] ... -2.54
2) COc1ccc(F)cc1C(=O)NCc1ccc(-c2nn([C@@H](C)C(F)(F)F)c(N)c2C(N)=O)cc1 [pirtobrutinib] ... 7.19
3) O=C(c1ccc(Oc2ccccc2)cc1Cl)c1c[nH]c2ncnc(N[C@@H]3CC[C@@H](CO)OC3)c12 [nemtabrutinib] ... 96.49
4) C=CC(=O)N1CCC([C@@H]2CCNc3c(C(N)=O)c(-c4ccc(Oc5ccccc5)cc4)nn32)CC1 [zanubrutinib] ... 1.42
